- test_target: hERG (Homo sapiens)
- Sequence (Q12809 whole entry): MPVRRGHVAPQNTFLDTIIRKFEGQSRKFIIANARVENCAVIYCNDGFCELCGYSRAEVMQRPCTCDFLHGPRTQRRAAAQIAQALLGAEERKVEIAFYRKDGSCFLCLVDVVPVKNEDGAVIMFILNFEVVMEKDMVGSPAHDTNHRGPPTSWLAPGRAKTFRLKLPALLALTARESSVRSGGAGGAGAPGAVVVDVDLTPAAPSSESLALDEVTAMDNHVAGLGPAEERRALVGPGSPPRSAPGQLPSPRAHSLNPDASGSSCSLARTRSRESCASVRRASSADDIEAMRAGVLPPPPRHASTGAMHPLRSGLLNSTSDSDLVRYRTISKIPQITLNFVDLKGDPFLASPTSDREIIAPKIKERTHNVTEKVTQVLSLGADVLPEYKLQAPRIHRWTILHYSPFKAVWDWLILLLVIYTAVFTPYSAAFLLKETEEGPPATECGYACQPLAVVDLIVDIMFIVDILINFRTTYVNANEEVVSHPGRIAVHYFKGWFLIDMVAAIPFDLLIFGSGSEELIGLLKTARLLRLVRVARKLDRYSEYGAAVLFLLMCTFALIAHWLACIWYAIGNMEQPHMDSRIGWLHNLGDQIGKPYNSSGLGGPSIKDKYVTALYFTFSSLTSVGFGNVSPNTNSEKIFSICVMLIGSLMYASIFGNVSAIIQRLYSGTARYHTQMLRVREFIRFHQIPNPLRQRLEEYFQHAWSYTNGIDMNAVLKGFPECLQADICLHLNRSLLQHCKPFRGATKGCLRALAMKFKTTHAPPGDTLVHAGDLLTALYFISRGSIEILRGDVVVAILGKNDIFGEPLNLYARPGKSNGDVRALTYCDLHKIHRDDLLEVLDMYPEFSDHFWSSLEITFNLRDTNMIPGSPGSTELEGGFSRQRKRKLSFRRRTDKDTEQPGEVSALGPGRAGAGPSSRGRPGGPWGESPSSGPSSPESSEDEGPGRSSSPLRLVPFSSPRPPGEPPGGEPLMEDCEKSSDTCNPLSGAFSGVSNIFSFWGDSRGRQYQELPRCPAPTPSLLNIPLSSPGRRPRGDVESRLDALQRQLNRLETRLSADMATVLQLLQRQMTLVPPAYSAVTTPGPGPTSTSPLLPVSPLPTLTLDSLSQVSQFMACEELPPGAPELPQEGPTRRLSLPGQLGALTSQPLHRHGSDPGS
- assay_method_text: in vitro
- details: peptide at 0.2 μM; 100% = no change, <100% = inhibition
Form field: Activity of hERG with peptide, expressed as a percentage of the reference compound (one value per entry).
value_type: Activity of hERG with peptide, expressed as a percentage of the reference compound (%)

substance="20 (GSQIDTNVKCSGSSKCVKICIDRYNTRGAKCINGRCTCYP) [compound 20]" measured=90
substance="21 (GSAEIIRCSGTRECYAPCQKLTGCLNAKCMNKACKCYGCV) [compound 21]" measured=109
substance="2 (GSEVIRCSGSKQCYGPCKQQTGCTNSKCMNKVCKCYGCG) [compound 2]" measured=97
substance="30 (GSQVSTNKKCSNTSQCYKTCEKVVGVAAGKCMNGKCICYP) [compound 30]" measured=95
